biological target: hu1‐23 (human); assay: SPR; BIAcore 8K, 25 °C, HBS‐EP+ buffer; antibodies with hIgG‐Fc immobilised on a Series S Protein A sensor chip at 300 RU; recombinant mouse FcγRs injected at 400 to 3.125 nM, 30 µL/min, 90 s association, 120 s dissociation; 1:1 Langmuir binding model
Field: Kd. Provide a value for each of the binders that follow.
Answers are plain numbers, in µM.

Some binders with known Kd results, for comparison:
binder="mouse FcγRIV (receptor) GLQKAVVNLDPKWVRVLEEDSVTLRCQGTFSPEDNSIKWFHNESLIPHQDANYVIQSARVKDSGMYRCQTALSTISDPVQLEVHMGWLLLQTTKWLFQEGDPIHLRCHSWQNRPVRKVTYLQNGKGKKYFHENSELLIPKATHNDSGSYFCRGLIGHNNKSSASFRISLGDPGSPSMFPPWHQ" observed_property=Kd value_reported=0.0418
binder="mouse FcγRI (receptor) EVVNATKAVITLQPPWVSIFQKENVTLWCEGPHLPGDSSTQWFINGTAVQISTPSYSIPEASFQDSGEYRCQIGSSMPSDPVQLQIHNDWLLLQASRRVLTEGEPLALRCHGWKNKLVYNVVFYRNGKSFQFSSDSEVAILKTNLSHSGIYHCSGTGRHRYTSAGVSITVKELFTTPVLRASVSSPFPEGSLVTLNCETNLLLQRPGLQLHFSFYVGSKILEYRNTSSEYHIARAEREDAGFYWCEVATEDSSVLKRSPELELQVLGPQSSAP" observed_property=Kd value_reported=0.0541
binder="mouse FcγRIII (receptor) ALPKAVVKLDPPWIQVLKEDMVTLMCEGTHNPGNSSTQWFHNGRSIRSQVQASYTFKATVNDSGEYRCQMEQTRLSDPVDLGVISDWLLLQTPQRVFLEGETITLRCHSWRNKLLNRISFFHNEKSVRYHHYKSNFSIPKANHSHSGDYYCKGSLGSTQHQSKPVTITVQDPATTSSISLVWYHT" observed_property=Kd value_reported=0.233

With those in mind, consider the next binder.
Prompt: Assign Kd to the following record: mouse FcγRII (receptor) THDLPKAVVKLEPPWIQVLKEDTVTLTCEGTHNPGNSSTQWFHNGRSIRSQVQASYTFKATVNDSGEYRCQMEQTRLSDPVDLGVISDWLLLQTPQLVFLEGETITLRCHSWRNKLLNRISFFHNEKSVRYHHYSSNFSIPKANHSHSGDYYCKGSLGRTLHQSKPVTITVQGPKSSRSLP
Completion: 0.3
